test system: modified luciferase; assay: Luciferase expression in liver, lung, spleen and femur 6 hours after intravenous administration to mice; format: in vivo; details: lung, 6 hours after intravenous 0.5 mpk, mice

| Compound | Total Flux, Lung |
| --- | --- |
| CCCCCCCCC(CCCCCCCC)OC(=O)CCCCCCCN(CCO)CCCC(=O)OCCCC | 3.67E+05 |
| CCCCCCCCCOC(=O)CCCCCCCN(CCO)CCCCCCCC(=O)OC(CCCCCC)CCCCCCCC (centres unmarked) | 1.16E+07 |
| CCCCCCCCC(C)OC(=O)CCCN(CCO)CCCCCCCC(=O)OC(CCCCCCCC)CCCCCCCC (centres unmarked) | 6.32E+06 |
| CCCCCCCCC(CCCCCCCC)OC(=O)CCCCCCCN(CCO)CCCCCCCC(=O)OC(C)(C)C | 1.00E+07 |
| CCCCCCCCC(C)OC(=O)CCCCCCCN(CCO)CCCCCCCC(=O)OC(CCCCCCCC)CCCCCCCC (centres unmarked) | 3.31E+07 |
| CCCCCCCCC(CCCCCCCC)OC(=O)CCCCCCCN(C)CCCCCCCC(=O)OC(CCCCCCCC)CCCCCCCC | 5.67E+04 |
| CCCCCCCCCOC(=O)CCCCCCCN(CCCCCCCC(=O)OC(CCCCCCCC)CCCCCCCC)CCOCCO | 2.89E+06 |
| CCCCCCCCC(CCCCCCCC)OC(=O)CCCCCCCN(CCO)CCCCCCCCC1CC1CCCCCCCC (centres unmarked) | 8.71E+06 |

Sourced from patent US10857105B2
